# test target: AAK1 (Homo sapiens)
# Construct: NP_055726.2
# Sequence (Q2M2I8 1-863 isoform Q2M2I8-2): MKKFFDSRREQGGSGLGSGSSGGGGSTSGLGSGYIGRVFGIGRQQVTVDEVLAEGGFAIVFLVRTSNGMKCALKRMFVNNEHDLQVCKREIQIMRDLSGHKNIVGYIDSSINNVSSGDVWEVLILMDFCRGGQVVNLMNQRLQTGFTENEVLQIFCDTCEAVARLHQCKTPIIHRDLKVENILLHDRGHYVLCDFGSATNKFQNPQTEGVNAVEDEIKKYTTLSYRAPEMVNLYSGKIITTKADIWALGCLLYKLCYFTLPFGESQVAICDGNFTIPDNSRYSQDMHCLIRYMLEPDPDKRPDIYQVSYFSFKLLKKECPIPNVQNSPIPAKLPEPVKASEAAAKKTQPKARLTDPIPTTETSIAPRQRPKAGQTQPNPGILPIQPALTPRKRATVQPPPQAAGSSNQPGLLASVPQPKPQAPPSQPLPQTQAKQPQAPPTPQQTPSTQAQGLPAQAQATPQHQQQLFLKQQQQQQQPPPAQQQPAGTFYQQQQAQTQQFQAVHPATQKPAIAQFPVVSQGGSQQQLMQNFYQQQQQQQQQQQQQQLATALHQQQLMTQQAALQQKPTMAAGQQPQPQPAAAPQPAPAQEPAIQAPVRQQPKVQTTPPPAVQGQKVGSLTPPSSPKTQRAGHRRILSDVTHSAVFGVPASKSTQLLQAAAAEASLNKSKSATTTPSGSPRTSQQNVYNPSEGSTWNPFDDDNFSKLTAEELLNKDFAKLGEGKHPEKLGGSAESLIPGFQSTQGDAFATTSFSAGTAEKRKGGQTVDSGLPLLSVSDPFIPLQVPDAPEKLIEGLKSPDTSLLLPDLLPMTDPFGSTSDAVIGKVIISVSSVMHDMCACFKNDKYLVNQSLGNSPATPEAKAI
# protocol text: P81 filter plate assay
# Type: biochemical
# conditions used: full-length human AAK1, Mu2 substrate, 33P-ATP
pIC50: −log10 of the molar value.
Would you mind telling me the reported pIC50 of each entry?

Worked examples follow.
smiles input	test target	outcome measure	result
[2H]C1([2H])N(C(=O)OCCOC)C([2H])([2H])C([2H])([2H])N(c2ccn3ncc(-c4cccnc4OC)c3n2)C1([2H])[2H]	AAK1 (Homo sapiens)	pIC50	≥ 8.00
CCOC(=O)N1CCN(c2ccn3ncc(-c4ccc(OC)nc4OC)c3n2)CC1	AAK1 (Homo sapiens)	pIC50	≥ 8.00
COCCOc1ccccc1-c1cnn2ccc(N3CCN(C(=O)OC(C)C)CC3)nc12	AAK1 (Homo sapiens)	pIC50	≥ 7.00
COCCOC(=O)N1CCN(c2ccn3ncc(-c4cccnc4OC)c3n2)CC1	AAK1 (Homo sapiens)	pIC50	≥ 8.00
COC(=O)COC(=O)N1CCN(c2ccn3ncc(-c4cccnc4OC)c3n2)CC1	AAK1 (Homo sapiens)	pIC50	≥ 7.00

For every record below, what is its pIC50?
1. COc1ncccc1-c1cnn2ccc(N3CC[C@H](N(C)C(=O)[C@@H](N)CC(C)C)C3)nc12
2. COCCOC(=O)N1CCN(c2ccn3ncc(-c4cc(F)cnc4OC)c3n2)CC1
3. COc1cccnc1-c1cnn2ccc(N3CCN(C(=O)OC(C)C)CC3)nc12
4. COc1ncc(C)cc1-c1cnn2ccc(N(C)CCN(C)C(=O)OC(C)C)nc12

A:
["≥ 8.00", "≥ 8.00", "≥ 6.00", "≥ 7.00"]
